Target: T1, 4H3165-AA
T1 chain: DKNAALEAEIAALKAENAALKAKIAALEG
Test: two-hybrid library CCmax;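 further: natural log of median RNA to DNA barcode read ratio; higher means stronger binding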
Settings: mean of both orientations
readout_label: interaction score
Answer using only a numeral; do not append any unit.

Before answering, review these 3 worked examples.
DKNAALEAEIAALEAKNAALKAEIAALKG [4H3130-AA]    -1.3
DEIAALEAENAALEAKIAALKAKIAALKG [4H174-AA]    -1.24
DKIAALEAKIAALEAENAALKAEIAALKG [4H2330-AA]    -1.39

For the binder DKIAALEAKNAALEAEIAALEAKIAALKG [4H2438-AA] , report interaction score.
-1.17

For the binder DKIAALEAKIAALKAENAALEAKIAALEG [4H2389-AA] , report interaction score.
0.858

For the binder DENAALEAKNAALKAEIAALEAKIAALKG [4H1478-AA] , report interaction score.
-1.68
